- System: PPARg:RXRa IVT, anti-PPARg (NR concentration 270 nM, RXRa partner concentration 90 nM)
- TEST NAME: PBM binding z-score (relative to random genomic background probes); higher = stronger binding; sequences stand for … in GC…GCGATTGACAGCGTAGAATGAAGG
Provide the recorded PBM binding z-score for the entries that follow.
Answers are plain numbers.

As a guide, the following entries are already answered.
| BIOPOLYMER SEQUENCE | PBM binding z-score |
| --- | --- |
| GCGACTGTGGCAAAGCAGGTTACCATAAGGTTGG | 0.528 |
| ATTAGCAGGCCAAGGGTCACTCAAGATTAGTCCG | 3.76 |
| AGAATGAGGTTACCAAAGATCGGGGAAACGCTTG | 3.16 |
| CCGACTGGGGCACAAGGTTACCATAAGCCAGCCC | 4.45 |
| TGGCCTAGGTCATTCAGGGGCCAGTATAGAAAGC | 2.22 |

# ---- query sequence ----
Request: Requested field: PBM binding z-score. Item: ATCTGTAGGTAAGACTCAGTTCAGTGAAGAACGC
Result: 0.619

====

- Test system: PPARg DBDmut:RXRa IVT, anti-PPARg (DBD mutation: PPARg1 K132A/R137A, NR concentration 270 nM, RXRa partner concentration 90 nM)
- TEST NAME: PBM binding z-score (relative to random genomic background probes); higher = stronger binding; sequences stand for … in GC…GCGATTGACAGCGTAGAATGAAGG
rule met means recorded PBM binding z-score is 0.3 or above; rule not met means it is below 0.3.

Illustrative cases are given below, each with its answer.
| BIOPOLYMER SEQUENCE | ASSIGNED CATEGORY |
| --- | --- |
| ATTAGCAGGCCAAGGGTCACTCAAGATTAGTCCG | rule not met |
| CCTACTAGGCCAAAGGTCATTGATTCCAATGCTC | rule met |

Request: Textbook exercise: given the entry CAAACTAGGTCACGAAAGGTCCAAGTCGAATGAC , state whether its PBM binding z-score is greater than or equal to 0.3.
Result: rule met

Request: In plain terms: is recorded PBM binding z-score at least 0.3 for CATGCAGGGTCAGCTAGGCCAGAGTAGGGACGGC ?
Result: rule met

Request: Assess whether reported PBM binding z-score for TGTATTAGTTGATTAGGGCAACCGAAACAGCGGA sits at 0.3 or higher.
Result: rule met

Request: Dear colleague, could you confirm whether CGAACTAGGTCAGAACAGGACAGTAAAGGATGAT has PBM binding z-score at or above 0.3?
Result: rule met

Request: API: above_or_equal(metric=PBM binding z-score, cutoff=0.3) for item ATCGAAAGGTCGAGGTGGGTATAGAGAAAGGGAA
Result: rule met

Request: Check if PBM binding z-score >= 0.3 (inclusive). Item: CGAACTAGCTCAGAACAGGACAGTGAAGGATGAT
Result: rule not met

Request: In plain terms: is recorded PBM binding z-score at least 0.3 for ATCTCTAGGTAACCAAGTTCAGCGAATGCCGAAC ?
Result: rule met

Request: Is PBM binding z-score for CAGCCTACGTCAGGGCCAGTATAGGAGGAACGTT at or above 0.3?
Result: rule not met

Request: Check this sequence for PBM binding z-score at or above 0.3: CGTCCGAGGTCAGAGAGGTCAGTGAATGCCGAGT
Result: rule not met

Request: Check this sequence for PBM binding z-score at or above 0.3: ATCTCTAGGTAAAGATAGTGCAGTGAATGCAAAT
Result: rule met

Request: Hello, I need to know if TCTCGGAGGACACGAAGGTCAGAGTTTTCCAGAG has measured PBM binding z-score not below 0.3. Thanks!
Result: rule not met

Request: Record CGTCCAAGGTCATAGGAGGTCCGTGAAGACAGAT ; criterion: PBM binding z-score no lower than 0.3. Met?
Result: rule met

Request: I'd appreciate it if you could say whether GGAACGAGGGCCAGTTGATAGCAGAGTTTGATGG has PBM binding z-score at least equal to 0.3.
Result: rule not met

Request: Reported PBM binding z-score reaches at least 0.3 for GCAGACAGGCGAAACGCAGGTAACTCAGGGTGGC ?
Result: rule not met

Request: Textbook exercise: given the entry ATACCAAGGTGATCGTGAGGTCGTTGTTACTAAC , state whether its PBM binding z-score is greater than or equal to 0.3.
Result: rule met

Request: # check: PBM binding z-score of CCGACTGGGTCAGAAAGGTTACCATACCATCCGG is greater than or equal to 0.3
Result: rule not met

Request: Entry CATAGCAGGCCAATCTGGGTCACTCAAGGCTTGA : is its PBM binding z-score no less than 0.3?
Result: rule not met

Request: Item CGAACTAGGTAATTGACAGGACAGTGAATAGTAA with PBM binding z-score of 0.3 or above?
Result: rule met

Request: Identify whether the reported PBM binding z-score of the following sequence is 0.3 or greater: TTTTGTAGATCAATAGAGGTTAAGAAAGTGCGCT
Result: rule met

Request: Please tell me: is the sequence GATACAGGGTCAGCTAGAGGCCAGAGAATGGAAA at or over 0.3 in terms of PBM binding z-score?
Result: rule not met

Request: Identify whether the reported PBM binding z-score of the following sequence is 0.3 or greater: CGTCCAAGGTCATCAGGTCAGTGAAAGCGACGTG
Result: rule met

Request: For this sequence, is measured PBM binding z-score 0.3 or higher? CCTATTAGTTGACCATAAGGGCAACAGAAGCTCG
Result: rule not met
